Target: human GPR68 (Homo sapiens, UniProt Q15743)
Sequence (Q15743 whole entry): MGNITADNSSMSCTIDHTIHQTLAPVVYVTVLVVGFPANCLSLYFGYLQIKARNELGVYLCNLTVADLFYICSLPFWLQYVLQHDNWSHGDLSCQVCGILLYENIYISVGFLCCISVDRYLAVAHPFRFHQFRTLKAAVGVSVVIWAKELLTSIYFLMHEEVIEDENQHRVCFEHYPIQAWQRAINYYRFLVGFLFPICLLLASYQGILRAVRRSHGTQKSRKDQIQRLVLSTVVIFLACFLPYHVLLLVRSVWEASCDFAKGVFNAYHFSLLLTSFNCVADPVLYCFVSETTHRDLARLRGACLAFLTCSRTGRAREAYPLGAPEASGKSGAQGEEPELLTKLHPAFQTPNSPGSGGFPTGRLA
Assay: GloSensor cAMP assay, proton-mediated Gs-cAMP production at human GPR68
Type: cell-based
Conditions: difference of Log(αβ/KB) from that of 1; human GPR68

- compound: "COc1ccccc1CNc1nc(N)nc(-c2ccccc2CO)n1 [Compound 53]"
  Δ: "−0.28"
- compound: "Nc1nc(NCc2ccccc2)nc(-c2cc(F)ccc2CO)n1 [Compound 24]"
  Δ: 0.38

---

// reported Δ for each item listed
Target: human GPR68 (Homo sapiens, UniProt Q15743)
Assay: GloSensor cAMP assay, proton-mediated Gs-cAMP production at human GPR68
Assay type: cell-based
Settings: difference of Log(αβ/KB) from that of 1; human GPR68

- molecule: "Nc1nc(NCc2cccc(F)c2)nc(-c2ccccc2CO)n1 [Compound 42]"
  target_system: "human GPR68 (Homo sapiens, UniProt Q15743)"
  Δ: 0.24
- molecule: "CC(C)Oc1ccc(-c2nc(N)nc(NCc3ccccc3)n2)c(CO)c1 [Compound 38]"
  target_system: "human GPR68 (Homo sapiens, UniProt Q15743)"
  Δ: 0.43
- molecule: "Cc1cccc(CNc2nc(N)nc(-c3ccccc3CO)n2)c1 [Compound 51]"
  target_system: "human GPR68 (Homo sapiens, UniProt Q15743)"
  Δ: 0.26
- molecule: "Nc1nc(NCCc2ccc(Oc3ccccc3)cc2)nc(-c2ccccc2CO)n1 [Compound 64]"
  target_system: "human GPR68 (Homo sapiens, UniProt Q15743)"
  Δ: 0.59
- molecule: "Nc1nc(NCc2ccccc2)nc(-c2c(F)cccc2CO)n1 [Compound 25]"
  target_system: "human GPR68 (Homo sapiens, UniProt Q15743)"
  Δ: "−0.12"
- molecule: "Nc1nc(NCCc2ccccc2)nc(-c2cc(Cl)ccc2CO)n1 [Compound 77]"
  target_system: "human GPR68 (Homo sapiens, UniProt Q15743)"
  Δ: 0.95
- molecule: "Nc1nc(NCCCc2ccccc2)nc(-c2cc(Cl)ccc2CO)n1 [Compound 78]"
  target_system: "human GPR68 (Homo sapiens, UniProt Q15743)"
  Δ: 1.07
- molecule: "Nc1nc(NCc2ccccc2C(F)(F)F)nc(-c2ccccc2CO)n1 [Compound 47]"
  target_system: "human GPR68 (Homo sapiens, UniProt Q15743)"
  Δ: 0.65

---

Biological target: human GPR68 (Homo sapiens, UniProt Q15743)
Test: GloSensor cAMP assay, proton-mediated Gs-cAMP production at human GPR68
Type: cell-based
Conditions: allosteric index; human GPR68; mean ± SEM

- compound: "CNCc1ccccc1-c1nc(N)nc(NCc2ccccc2)n1"
  Log (αβ/KB): "Weak PAM"
- compound: "Nc1nc(NCc2ccccc2)nc(-c2ccccc2)n1"
  Log (αβ/KB): "Inactive"
- compound: "Cc1ccccc1-c1nc(N)nc(NCc2ccccc2)n1"
  Log (αβ/KB): "Weak PAM"
- compound: "CC(O)c1ccccc1-c1nc(N)nc(NCc2ccccc2)n1 (stereo not shown)"
  Log (αβ/KB): "Weak PAM"
- compound: "CC(=O)c1cccc(-c2nc(N)nc(NCc3ccccc3)n2)c1"
  Log (αβ/KB): "Inactive"
- compound: "Nc1nc(NCc2ccccc2)nc(-c2cccc(CO)c2)n1"
  Log (αβ/KB): "Inactive"
- compound: "CN(C)c1nc(NCc2ccccc2)nc(-c2ccccc2CO)n1"
  Log (αβ/KB): "Inactive"
- compound: "COc1cccc(CO)c1-c1nc(N)nc(NCc2ccccc2)n1"
  Log (αβ/KB): "Weak PAM"
- compound: "Nc1cc(-c2ccccc2CO)nc(NCc2ccccc2)n1"
  Log (αβ/KB): "Weak PAM"
- compound: "CC(=O)c1ccccc1-c1nc(N)nc(NCc2ccccc2)n1"
  Log (αβ/KB): "Weak PAM"

---

// reported Kb for each item listed
Molecular target: UniProt Q15743
Experiment: GloSensor cAMP assay, proton-mediated Gs-cAMP production at human GPR68
Assay type: cell-based

- smiles_entry: "Nc1nc(NCc2ccc(Oc3ccccc3)cc2)nc(-c2c(F)cccc2CO)n1"
  unit_annotation: "µM"
  Kb: 1.41
- smiles_entry: "CCOc1ccc(CNc2nc(N)nc(-c3ccccc3CO)n2)cc1"
  unit_annotation: "µM"
  Kb: 17
- smiles_entry: "CCNc1nc(NCc2ccccc2)nc(-c2ccccc2CO)n1"
  unit_annotation: "µM"
  Kb: 23.4
- smiles_entry: "Nc1nc(NCCCCc2ccc(Oc3ccccc3)cc2)nc(-c2ccccc2CO)n1"
  unit_annotation: "µM"
  Kb: 15.5
- smiles_entry: "Cc1ccccc1CNc1nc(N)nc(-c2ccccc2CO)n1"
  unit_annotation: "µM"
  Kb: 20
- smiles_entry: "Cc1cccc(CNc2nc(N)nc(-c3c(F)cccc3CO)n2)c1"
  unit_annotation: "µM"
  Kb: 36.3
- smiles_entry: "Nc1nc(NCCc2ccc(Oc3ccccc3)cc2)nc(-c2c(F)cccc2CO)n1"
  unit_annotation: "µM"
  Kb: 8.91
- smiles_entry: "Nc1nc(NCc2cccc(C(F)(F)F)c2)nc(-c2ccccc2CO)n1"
  unit_annotation: "µM"
  Kb: 7.76
- smiles_entry: "COc1ccc(CO)c(-c2nc(N)nc(NCc3ccccc3)n2)c1"
  unit_annotation: "µM"
  Kb: 102

---

Target: mouse GPR68 (Mus musculus, UniProt Q8BFQ3)
Sequence (Q8BFQ3 whole entry): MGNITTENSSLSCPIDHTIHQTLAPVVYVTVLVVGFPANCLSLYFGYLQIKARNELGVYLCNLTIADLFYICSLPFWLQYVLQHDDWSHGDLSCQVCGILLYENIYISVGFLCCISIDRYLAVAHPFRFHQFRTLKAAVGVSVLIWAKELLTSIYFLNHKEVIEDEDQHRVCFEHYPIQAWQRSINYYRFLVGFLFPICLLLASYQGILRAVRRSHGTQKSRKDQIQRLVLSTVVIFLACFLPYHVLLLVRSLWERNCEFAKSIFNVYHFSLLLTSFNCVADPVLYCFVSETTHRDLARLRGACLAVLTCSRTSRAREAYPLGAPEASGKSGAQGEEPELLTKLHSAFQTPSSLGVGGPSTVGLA
Assay: GloSensor cAMP assay at mouse GPR68
Assay type: cell-based
measured_parameter: Kb (µM)

- smiles_entry: "Nc1nc(NCc2ccc(Oc3ccccc3)cc2)nc(-c2c(F)cccc2CO)n1"
  measured_parameter: "Kb"
  unit_annotation: "µM"
  experimental_result: 7.59
- smiles_entry: "Nc1nc(NCCCc2ccccc2)nc(-c2cc(Cl)ccc2CO)n1"
  measured_parameter: "Kb"
  unit_annotation: "µM"
  experimental_result: 13.8
- smiles_entry: "Nc1nc(NCc2ccccc2)nc(-c2ccccc2CO)n1"
  measured_parameter: "Kb"
  unit_annotation: "µM"
  experimental_result: 74.1
- smiles_entry: "Nc1nc(NCCCCc2ccccc2)nc(-c2ccccc2CO)n1"
  measured_parameter: "Kb"
  unit_annotation: "µM"
  experimental_result: 12.3
- smiles_entry: "Nc1nc(NCc2ccc(Cl)cc2)nc(-c2ccccc2CO)n1"
  measured_parameter: "Kb"
  unit_annotation: "µM"
  experimental_result: 50.1
- smiles_entry: "Nc1nc(NCCc2ccccc2)nc(-c2cc(Cl)ccc2CO)n1"
  measured_parameter: "Kb"
  unit_annotation: "µM"
  experimental_result: 19.1

---

Molecular target: human GPR68 (Homo sapiens, UniProt Q15743)
Test: GloSensor cAMP assay, proton-mediated Gs-cAMP production at human GPR68
Assay type: cell-based
Conditions: difference of Log(αβ/KB) from that of 1; human GPR68

- smiles_entry: "CCOc1ccc(-c2nc(N)nc(NCc3ccccc3)n2)c(CO)c1"
  Δ: 0.03
- smiles_entry: "Cc1ccc(CNc2nc(N)nc(-c3ccccc3CO)n2)cc1"
  Δ: 0.29
- smiles_entry: "Nc1nc(NCc2ccccc2)nc(-c2cc(Cl)ccc2CO)n1"
  Δ: 0.47
- smiles_entry: "Nc1nc(NCc2ccc(Oc3ccccc3)cc2)nc(-c2cc(Cl)ccc2CO)n1"
  Δ: 0.47

---

Biological target: human GPR68 (Homo sapiens, UniProt Q15743)
Assay: GloSensor cAMP assay, proton-mediated Gs-cAMP production at human GPR68
Type: cell-based
Conditions: difference of Log(αβ/KB) from that of 1; human GPR68
// reported Δ for each item listed
measured_parameter: Δ

- compound: "Nc1nc(NCc2ccccc2F)nc(-c2ccccc2CO)n1 [Compound 41]"
  experimental_result: 0.25
- compound: "COc1ccccc1CNc1nc(N)nc(-c2c(F)cccc2CO)n1 [Compound 70]"
  experimental_result: "−0.19"
- compound: "CNc1nc(NCc2ccccc2)nc(-c2ccccc2CO)n1 [Compound 5]"
  experimental_result: 0.05
- compound: "Nc1nc(Nc2ccccc2)nc(-c2ccccc2CO)n1 [Compound 60]"
  experimental_result: "−0.27"
- compound: "CCNc1nc(NCc2ccccc2)nc(-c2ccccc2CO)n1 [Compound 6]"
  experimental_result: 0.03
- compound: "COc1ccc(CO)c(-c2nc(N)nc(NCc3ccccc3)n2)c1 [Compound 31]"
  experimental_result: "−0.54"
- compound: "Nc1nc(NCCCc2ccccc2)nc(-c2c(F)cccc2CO)n1 [Compound 73]"
  experimental_result: 0.36
- compound: "Nc1nc(NCCc2ccccc2)nc(-c2c(F)cccc2CO)n1 [Compound 72]"
  experimental_result: 0.82

---

// reported Kb for each item listed
Molecular target: human GPR68 (Homo sapiens)
Assay: GloSensor cAMP assay, proton-mediated Gs-cAMP production at human GPR68
Assay type: cell-based

- smiles_entry: "Nc1nc(NCCCc2ccc(Oc3ccccc3)cc2)nc(-c2ccccc2CO)n1"
  Kb, µM: 21.4
- smiles_entry: "Nc1nc(NCc2ccc(Cl)cc2)nc(-c2ccccc2CO)n1"
  Kb, µM: 6.03
- smiles_entry: "Nc1nc(NCc2ccccc2F)nc(-c2c(F)cccc2CO)n1"
  Kb, µM: 60.3
- smiles_entry: "Nc1nc(NCc2ccccc2)nc(-c2c(Cl)cccc2CO)n1"
  Kb, µM: 37.2
- smiles_entry: "Nc1nc(NCc2ccc(C(F)(F)F)cc2)nc(-c2ccccc2CO)n1"
  Kb, µM: 9.33
- smiles_entry: "Nc1nc(NCc2ccccc2)nc(-c2cc(F)ccc2CO)n1"
  Kb, µM: 26.3
- smiles_entry: "Nc1nc(NCCCc2ccccc2)nc(-c2ccccc2CO)n1"
  Kb, µM: 6.03
- smiles_entry: "Nc1nc(NCc2ccccc2F)nc(-c2ccccc2CO)n1"
  Kb, µM: 53.7
